Task for the reader: assign each of the following compounds its reported LC retention time.
- assay_summary: HILIC, Waters Atlantis Premier BEH Z-HILIC, 100 × 2.1 mm, 1.7 µm, 40 °C, 0.15 mL/min, estimated dead time 1.5 min; A: water + 20 mM ammonium carbonate + 5 µM medronic acid; B: 10% water + 90% acetonitrile + 2 mM ammonium carbonate + 0.5 µM medronic acid; gradient (min/%B) 0/100 18/55 18.1/20 21.5/20 22/100 23.5/100 25.5/100
- condition_context: stereoisomer not certain
# value in min; strip the unit string

Which measured LC retention time value corresponds to O=C(CO)C(O)C(O)C(O)COP(=O)(O)O (stereo not given) [Fructose 6-phosphate] ?
12

Also check CCC(C)C(N)C(=O)O (stereo not given)
6.3

Also check NC(=O)c1ccc[n+](C2OC(COP(=O)(O)OP(=O)(O)OCC3OC(n4cnc5c(N)ncnc54)C(O)C3O)C(O)C2O)c1 (stereo not given)
10.5

Also check CCC(=O)OC(CC(=O)[O-])C[N+](C)(C)C (stereo not given)
6.33

Also check NC(=O)CCC(N)C(=O)O (stereo not given)
10.4

Also check `O=C(O)CCC(=O)C(=O)O`
8.62

Also check Nc1ncnc2c1ncn2C1OC(COP(=O)(O)OP(=O)(O)OP(=O)(O)O)C(O)C1O (stereo not given)
14.3

Also check CC(=O)SCCNC(=O)CCNC(=O)C(O)C(C)(C)COP(=O)(O)OP(=O)(O)OCC1OC(n2cnc3c(N)ncnc32)C(O)C1OP(=O)(O)O (stereo not given)
9.49

Also check `C=C(OP(=O)(O)O)C(=O)O`
14.4

Also check CC(C)CC(N)C(=O)O (stereo not given)
6.08

src = the RepoRT retention time repository
